# target-of-assay: cyclin D1/cdk 4 enzyme (Homo sapiens)
# Construct: made in house; host or cells: Sf9 insect cells, recombinant baculovirus
# Sequence (P11802 whole entry, species assumed): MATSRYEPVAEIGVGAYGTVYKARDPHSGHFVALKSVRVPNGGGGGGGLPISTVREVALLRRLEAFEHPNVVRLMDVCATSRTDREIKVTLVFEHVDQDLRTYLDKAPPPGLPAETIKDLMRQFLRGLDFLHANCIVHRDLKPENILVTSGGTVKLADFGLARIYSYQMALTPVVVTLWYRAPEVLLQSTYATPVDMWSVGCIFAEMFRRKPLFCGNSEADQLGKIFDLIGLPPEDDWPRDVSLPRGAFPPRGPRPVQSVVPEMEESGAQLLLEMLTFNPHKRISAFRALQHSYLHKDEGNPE
# Sequence (P24385 whole entry partner, species assumed): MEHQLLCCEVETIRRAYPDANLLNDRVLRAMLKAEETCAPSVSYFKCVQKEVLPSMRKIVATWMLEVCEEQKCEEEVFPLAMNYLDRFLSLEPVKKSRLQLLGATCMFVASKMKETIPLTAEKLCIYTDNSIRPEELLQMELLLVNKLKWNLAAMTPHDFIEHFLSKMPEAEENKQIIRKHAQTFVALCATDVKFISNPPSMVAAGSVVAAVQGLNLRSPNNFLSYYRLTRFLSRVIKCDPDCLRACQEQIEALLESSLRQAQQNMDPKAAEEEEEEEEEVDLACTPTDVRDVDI
# assay-info: CDK4 ELISA kinase assay (phospho-Rb ser 795 detection)
# Assay type: biochemical
# setup-conditions: In Vitro Enzyme Assays, 200 μM ATP, read-out: CDK4 IC50
pIC50: −log10 of the molar value.
reported-property: pIC50

Recorded pIC50, per entry:
C#CC(=O)Nc1ccc(CN/C=C2\C(=O)NC(=O)c3ccc(I)cc32)cc1O [Example 340] : 7.15
O=C1NC(=O)c2ccc(-c3ccc(CN4CCCCC4)cc3)cc2C1=CNc1ccc(CN2CCCCC2)cc1 [Example 125] : 4.35
COc1ccc(CN/C=C2\C(=O)NC(=O)c3ccc(-c4ccsc4)cc32)cc1O [Example 88] : 8.70

1 = CN(C)CCNC(=O)C1CCN(c2ccc(N/C=C3\C(=O)NC(=O)c4ccc(I)cc43)cc2)CC1 [Example 433]
2 = CC(=O)Oc1cc(CNC=C2C(=O)NC(=O)c3ccc(Br)cc32)cc(OC(C)=O)c1 [Example 69]
Q: Identify the entry with the larger pIC50. Options: 1 and 2 // respond with label for picked entry
Ans: 2
(2: 6.92, 1: 5.92)

A = COCC1CCCN1Cc1ccc(N/C=C2\C(=O)NC(=O)c3ccc(Br)cc32)cc1 (stereo in doubt) [Example 39]
B = Nc1ccc(CN/C=C2\C(=O)NC(=O)c3ccc(-c4ccc(F)cc4)cc32)cc1O [Example 134]
Q: For the pair A and B , which entry has the numerically smaller recorded pIC50? // respond with label for picked entry
Ans: A
(A: 5.96, B: 7.40)
